B1: TPR 5TU (parent)
chain: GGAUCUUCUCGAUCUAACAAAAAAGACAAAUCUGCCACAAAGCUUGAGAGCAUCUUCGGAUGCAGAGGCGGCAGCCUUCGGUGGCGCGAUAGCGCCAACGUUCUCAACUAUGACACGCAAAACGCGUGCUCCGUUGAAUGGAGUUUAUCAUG

variants of: B1; assay: polymerase ribozyme fitness, log enrichment relative to wild type (log ratio); higher = more active; in vitro selection for triplet polymerase activity
This sample holds only a part of the variants without activity.
Reported values of polymerase ribozyme fitness (log ratio) for individual entries
recorded.metric: polymerase ribozyme fitness (log ratio)

| variant.descriptor | recorded.metric | inequality.operator | numeric.result |
| --- | --- | --- | --- |
| C32U C96G | polymerase ribozyme fitness (log ratio) | = | -1.58 |
| C14G C36A A52G A66C C93U C125A | polymerase ribozyme fitness (log ratio) | ≤ | -4.2 |
| C35U C57G G86U G133A | polymerase ribozyme fitness (log ratio) | = | -3.89 |
| A16G A17C A21U A29G U55A C57G A91C C103U U145A | polymerase ribozyme fitness (log ratio) | ≤ | -4.2 |
| C85U C95G | polymerase ribozyme fitness (log ratio) | = | -2.03 |
| G25C A52C G84U | polymerase ribozyme fitness (log ratio) | ≤ | -4.2 |
| U13A A22U A41C U53G | polymerase ribozyme fitness (log ratio) | = | -2.31 |
| G11A U13C C36U A49U A60U | polymerase ribozyme fitness (log ratio) | = | -4.19 |
| C8A A12U U15G G62U G124A | polymerase ribozyme fitness (log ratio) | ≤ | -4.2 |
| A49C G124U | polymerase ribozyme fitness (log ratio) | ≤ | -4.2 |
| C14U A23C U101C U102A U151G | polymerase ribozyme fitness (log ratio) | ≤ | -4.2 |
| A40C C85G A106G G117C | polymerase ribozyme fitness (log ratio) | = | -1.29 |
| C14G G88U G140A | polymerase ribozyme fitness (log ratio) | ≤ | -4.2 |
| A16G A26C C32U A47C U53A A91G C96G | polymerase ribozyme fitness (log ratio) | ≤ | -4.2 |
| G83U A89C | polymerase ribozyme fitness (log ratio) | = | -0.953 |
| U61A C76A C87U | polymerase ribozyme fitness (log ratio) | = | -3.68 |
| C35U C63A | polymerase ribozyme fitness (log ratio) | = | -0.573 |
| C14G A52G G141C | polymerase ribozyme fitness (log ratio) | = | -3.34 |
| C54U C76U C123A U139G U146C A150C | polymerase ribozyme fitness (log ratio) | ≤ | -4.2 |
| A16C A19U | polymerase ribozyme fitness (log ratio) | = | -1.03 |
| U45A U109C | polymerase ribozyme fitness (log ratio) | = | -3.44 |
| C8U C32A A49G G92A C96U U127G A138G | polymerase ribozyme fitness (log ratio) | ≤ | -4.2 |
